- System: c-Abl (mouse);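 also: 11-residue human phosphosite peptides and single-mutation variants displayed on the E. coli surface, counted by deep sequencing, each peptide's frequency after selection divided by its frequency in the unselected input library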;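 also: frequency after pTyr selection over input frequency; kinase dosed for 20-30% of maximal phosphorylation in three min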
- test: phosphorylation enrichment, bacterial display (enrichment ratio); higher = better substrate or ligand; peptides without Tyr show the background
// thresholds for phosphorylation enrichment classes: LOW = under 0.6, MEDIUM = from 0.6 up to 1, HIGH = 1 and over

Query string: Sort CDTKLYTSAPN [DNTTIP2_Y427] into one of the categories.
Result string: MEDIUM

Query string: Sort HRGYLYLAIEY [TEK_Y899] into one of the categories.
Result string: HIGH

Query string: Sort TEYIQYVRRKN [MAX_Y73_M74V] into one of the categories.
Result string: MEDIUM

Query string: Sort REDVFYTSKLW [AKR1C2_Y81_I79V] into one of the categories.
Result string: HIGH

Query string: Sort MSGDVYSTDFF [NTRK2_Y702_R699G_YF] into one of the categories.
Result string: MEDIUM

Query string: Sort KPGLKYVTYGN [GALNTL5_Y404] into one of the categories.
Result string: LOW

Query string: Sort KQRKEYMHRWQ [IQGAP2_Y710_R714W] into one of the categories.
Result string: HIGH

Query string: Sort ESMLRYEVYGG [STOX1_Y607] into one of the categories.
Result string: MEDIUM

Query string: Sort RILENYGADID [DNAH5_Y596_L591R] into one of the categories.
Result string: MEDIUM

Query string: Sort ACLSLYGGFVE [MVD_Y164_R161L] into one of the categories.
Result string: HIGH

Query string: Sort TVDASYYGGRG [ANTXR2_Y380] into one of the categories.
Result string: LOW
